Data origin, for the record: PubChem BioAssay (NCI)

- System: KM20L2 colon
- assay.method.text: NCI tumour cell line growth inhibition, 48 h
property.label: TGI

Solved entries:
>  <compound>
CCC[CH2][Sn]1([CH2]CCC)[O]C(=O)CN=Cc2c(ccc3ccccc23)[O]1

>  <property.label>
TGI

>  <reported>
2.29 µM

$$$$
>  <compound>
O=C1NC(=O)C(CCC(=O)c2ccc3ccccc3c2)C(=O)N1

>  <property.label>
TGI

>  <reported>
> 100 µM

$$$$
>  <compound>
NC1=NC(c2ccccc2)CC(c2cc(Cl)ccc2O)=N1 (stereo not drawn)

>  <property.label>
TGI

>  <reported>
31.8 µM

$$$$

According to the records, this compound CC1OC(OC2C(OC(=O)[C@]34CCC(C)(C)CC3C3=CCC5[C@@]6(C)C[C@H](O)[C@H](OC7OC(CO)C(O)C(O)C7N)[C@@](C)(C(=O)O)C6CC[C@@]5(C)C3(C)CC4)OCC(O)C2O)C(O)C(O)C1OC1OCC(O)C(O)C1O (stereo partly drawn) displays TGI of > 100 µM

The measured TGI associated with Cc1cccc(C(C)C)c1NC(=O)/C(Cc1c([N+](=O)[O-])cccc1[N+](=O)[O-])=N/NC(=O)CC#N reads > 100 µM

Kindly note the recorded TGI for C/C(O)=C(\N=O)C(=O)Nc1ccc(Cl)cc1Cl , which is > 100 µM

Record summary for O=C(N/C(=C\c1cccc([N+](=O)[O-])c1)c1nc2ccc([N+](=O)[O-])cc2[nH]1)c1ccccc1 : reported TGI = > 100 µM

Measured TGI, N#C/C(=C\c1ccc2ccccc2c1)c1ccccc1 : 34.9 µM

----------
- System: SW-620 colon
- assay.method.text: NCI tumour cell line growth inhibition, 48 h
TGI values for the molecules below.

Completed entries (count: 5):
>  <molecule>
O=C(O)C(=Cc1ccc(-c2ccccc2)cc1)C(=O)O

>  <TGI>
97.5 µM

$$$$
>  <molecule>
O=C1c2ccccc2C(=O)N1CCc1ncc[nH]1

>  <TGI>
> 100 µM

$$$$
>  <molecule>
CCOCc1c(C)cc(C)c(C2C(C(=O)c3ccccc3)N3c4ccccc4C=CC3C2(C#N)C(=O)OCC)c1C (stereo unspecified)

>  <TGI>
> 100 µM

$$$$
>  <molecule>
COc1ccc(NC(=O)CC(=O)N/N=C/c2ccc(N(CCC#N)S(C)(=O)=O)cc2)cc1

>  <TGI>
> 100 µM

$$$$
>  <molecule>
CCCn1c(=S)sc2c1nc(C)n1c(Nc3ccccc3)nnc21

>  <TGI>
22.3 µM

$$$$

The recorded TGI for CC(=O)OCC1OC(NC(=S)N/N=C2\CC(c3ccccc3)Oc3ccccc32)C(OC(C)=O)C(OC(C)=O)C1OC(C)=O (stereo unspecified) is > 100 µM

Reported TGI ( CCCCCCCCn1ccc2cc(NC(=O)Cn3cc(CN4CCCC4)nn3)ccc21 ) = 3.6 µM

# molecule CC(C)(C)C(=O)OCOP(=O)(OCOC(=O)C(C)(C)C)OCC1OC(n2ccc(=O)[nH]c2=O)C(N=[N+]=[N-])C1O (stereo unspecified) ; its TGI = 18.2 µM

// TGI lookup, molecule = Nc1nccc(-c2c(-c3ccc(F)cc3)ncn2C2CCC(O)CC2)n1 (stereo unspecified) , result: > 25 µM

Sure, the documented TGI for Cc1cc(N(CCC#N)CCC#N)ccc1/C=C1\N=C(c2cc([N+](=O)[O-])ccc2Cl)N(c2cccc(Cl)c2)C1=O is > 100 µM
